Reference source for all entries: the supplement of paper PMC11555231

molecular target: PADI4, Q9UM07; assay: log2 enrichment score relative to parent PADI4_3 peptide (binding to PADI4); higher = tighter binding than parent; conditions: CaCl2: 10 mM
Sequence (Q9UM07 whole entry): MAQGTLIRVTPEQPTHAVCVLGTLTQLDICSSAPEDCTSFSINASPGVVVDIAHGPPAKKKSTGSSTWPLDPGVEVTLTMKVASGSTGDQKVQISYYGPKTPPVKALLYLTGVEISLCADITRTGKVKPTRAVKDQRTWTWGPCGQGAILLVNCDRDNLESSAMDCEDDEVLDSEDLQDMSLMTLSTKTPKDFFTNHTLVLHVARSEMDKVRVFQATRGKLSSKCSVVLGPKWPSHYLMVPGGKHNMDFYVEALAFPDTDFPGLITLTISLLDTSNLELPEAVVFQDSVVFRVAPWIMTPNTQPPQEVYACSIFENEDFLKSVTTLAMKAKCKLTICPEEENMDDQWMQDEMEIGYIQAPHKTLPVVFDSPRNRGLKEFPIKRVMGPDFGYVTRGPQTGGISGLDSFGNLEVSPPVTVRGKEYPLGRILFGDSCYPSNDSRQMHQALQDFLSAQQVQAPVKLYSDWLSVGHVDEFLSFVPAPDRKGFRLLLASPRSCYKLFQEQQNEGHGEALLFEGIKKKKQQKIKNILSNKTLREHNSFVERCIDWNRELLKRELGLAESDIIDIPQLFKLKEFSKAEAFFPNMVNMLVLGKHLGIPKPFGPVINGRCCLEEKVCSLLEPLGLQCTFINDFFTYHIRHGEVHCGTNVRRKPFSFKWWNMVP
Label scheme for log2 enrichment score: lower than -3 is No, -3 and above is Yes.

| binder | classification |
| --- | --- |
| YRDIHYRHPKYCG [PADI4_3_H4I H4I] | Yes |
| YRNHHYRHPKYCG [PADI4_3_D3N D3N] | Yes |
| YRDHPYRHPKYCG [PADI4_3_H5P H5P] | No |
| YRDHHYRHPKACG [PADI4_3_Y11A Y11A] | No |
| YRDHHYRHPHYCG [PADI4_3_K10H K10H] | Yes |
| YRDHHYRHVKYCG [PADI4_3_P9V P9V] | Yes |
| YRDHHYRDPKYCG [PADI4_3_H8D H8D] | No |
| YRDSHYRHPKYCG [PADI4_3_H4S H4S] | Yes |
| YRDHHYRHFKYCG [PADI4_3_P9F P9F] | Yes |
| YRDLHYRHPKYCG [PADI4_3_H4L H4L] | Yes |
| YYDHHYRHPKYCG [PADI4_3_R2Y R2Y] | Yes |
| YRDHHYRHPKYCG [PADI4_3_H4H H4H] | Yes |
| YRDHHYRRPKYCG [PADI4_3_H8R H8R] | No |
| YTDHHYRHPKYCG [PADI4_3_R2T R2T] | Yes |
| YRDHHYRHPNYCG [PADI4_3_K10N K10N] | Yes |
| YRDHHYRHPKFCG [PADI4_3_Y11F Y11F] | Yes |
| YRDHHYRKPKYCG [PADI4_3_H8K H8K] | No |
| YADHHYRHPKYCG [PADI4_3_R2A R2A] | Yes |
| YRDHHYCHPKYCG [PADI4_3_R7C R7C] | Yes |
| YRDDHYRHPKYCG [PADI4_3_H4D H4D] | No |
| YRDHHYRQPKYCG [PADI4_3_H8Q H8Q] | No |
| YRDHHWRHPKYCG [PADI4_3_Y6W Y6W] | Yes |
| YDDHHYRHPKYCG [PADI4_3_R2D R2D] | No |
| YRDHHYRHNKYCG [PADI4_3_P9N P9N] | Yes |
| YRQHHYRHPKYCG [PADI4_3_D3Q D3Q] | No |
| YRDHHYRHPKHCG [PADI4_3_Y11H Y11H] | Yes |
| YRDHSYRHPKYCG [PADI4_3_H5S H5S] | No |
| YRDHRYRHPKYCG [PADI4_3_H5R H5R] | No |
| YRDHHYDHPKYCG [PADI4_3_R7D R7D] | Yes |
